- assay_remarks: inhibitors of Sendai virus-induced IRF3 signaling, primary screen, TLR/RLR signaling modifier project, cell-based, Sendai virus stimulus, luciferase, 10K MLSCN set (AID 602276);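 note: firefly luciferase from ISG56 promoter only with Renilla not read in this screen; 0% = Sendai virus plus DMSO and 100% = medium plus DMSO without virus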
- details: HEK293 RL24 IRF3 luciferase reporter, at 10 µM, active compounds read high
Recorded inhibition values for a group of molecules are listed next.
Reply with just the number (in %).

Study these solved cases before continuing.
>  <molecule>
COC(=O)CSc1nc2nc(C)cc(C)n2n1

>  <endpoint_unit>
%

>  <value_reported>
11.7

$$$$
>  <molecule>
C=CCn1c(C)cc(C(=O)CSc2nc3ccccc3o2)c1C

>  <endpoint_unit>
%

>  <value_reported>
-26.5

$$$$
>  <molecule>
CCOc1cccc(C(=O)N(Cc2ccc(F)cc2)C2CCS(=O)(=O)C2)c1 (configuration not stated)

>  <endpoint_unit>
%

>  <value_reported>
14.6

$$$$
>  <molecule>
O=C(CN(Cc1ccco1)C(=O)CNS(=O)(=O)c1ccc(F)cc1)NCCc1ccccc1

>  <endpoint_unit>
%

>  <value_reported>
-0.0533

$$$$
>  <molecule>
Cc1ccc(-c2csc3ncn(-n4c(C)ccc4C)c(=O)c23)o1

>  <endpoint_unit>
%

>  <value_reported>
-15.1

$$$$

Which value of inhibition has been reported for COC(=O)C1(C#N)C(c2ccccc2)C1(C(=O)OC)C(=O)OC (configuration not stated) in the records?
13.2

Further, for "O=C(COc1ccccc1)N1CCN(C(=O)c2cccc(F)c2)CC1" ?
8.19
